Recorded Population Healthy Nuclei (%), one value per entry.
- Test system: U2OS
- assay_procedure: Multiplex assay against U2OS
- Assay type: toxicity, cell-based
- measurement_setup: human, 24 h, 10 µM, compound concentration 10 uM, replicate 1
endpoint_label: Population Healthy Nuclei (%)

compound: C=CCn1c(=O)c2cnc(Nc3ccc(N4CCN(C)CC4)cc3)nc2n1-c1cccc(C(C)(C)O)n1
endpoint_label: Population Healthy Nuclei (%)
reported: 11
//
compound: CCc1cccc(CC)c1NC(=O)c1nn(C)c2c1CCc1cnc(Nc3ccc(N4CCN(C)CC4)cc3OC)nc1-2
endpoint_label: Population Healthy Nuclei (%)
reported: 71
//
compound: O=C(Nc1ccc(Cl)cc1)Nc1cccc(-c2cccc(N3CCCC3)n2)c1
endpoint_label: Population Healthy Nuclei (%)
reported: 54
//
compound: CN1CCC(=C2c3ccccc3CC(=O)c3sccc32)CC1.O=C(O)/C=C/C(=O)O [KETOTIFEN FUMARATE]
endpoint_label: Population Healthy Nuclei (%)
reported: 59

----------
Recorded Population Apoptotic (%), one value per entry.
- Test system: HEK-293T
- assay_procedure: Multiplex assay against HEK293T
- Assay type: toxicity, cell-based
- measurement_setup: human, 24 h, 10 µM, compound concentration 10 uM, replicate 2

smiles_entry: Cl.Oc1ccc2c3c1O[C@H]1c4[nH]c5c(c4C[C@@]4(O)[C@@H](C2)N(CC2CC2)CC[C@]314)C[C@@]1(O)[C@H]2Cc3ccc(O)c4c3[C@@]1(CCN2CC1CC1)[C@H]5O4
Population Apoptotic (%): 11
//
smiles_entry: CCCS(=O)(=O)c1nc(NC2CC2)cc(-c2ccc3c(ccn3C3CC(C)(C)NC(C)(C)C3)c2)n1
Population Apoptotic (%): 88
//
smiles_entry: C=CCn1c(=O)c2cnc(Nc3ccc(N4CCN(C)CC4)cc3)nc2n1-c1cccc(C(C)(C)O)n1
Population Apoptotic (%): 20

----------
- System: Fibroblast
- assay_procedure: Multiplex assay against human fibroblast
- Format: toxicity, cell-based
- measurement_setup: 12 h, 10 µM, compound concentration 10 uM, replicate 1

compound: C=C1/C(=C\C=C2/CCC[C@]3(C)[C@@H]([C@H](C)/C=C/[C@H](C)C(C)C)CC[C@@H]23)C[C@@H](O)C[C@@H]1O [DOXERCALCIFEROL]
system: Fibroblast
Population Fragmented Nuclei (%): 72%
//
compound: O=C1NC(=O)C(c2cnc3ccccn23)=C1c1cn2c3c(cc(F)cc13)CN(C(=O)N1CCCCC1)CC2 [LY-2090314]
system: Fibroblast
Population Fragmented Nuclei (%): 23%
//
compound: CCOc1cc(C(=O)N2CCC(N3CCN(C)CC3)CC2)ccc1Nc1ncc2c(n1)N(C1CCCC1)c1ccccc1C(=O)N2C
system: Fibroblast
Population Fragmented Nuclei (%): 30%
//
compound: Cc1ccc(C(=O)Nc2cccc(C(F)(F)F)c2)cc1Nc1nc(-c2cccnc2)nc2c1cnn2C
system: Fibroblast
Population Fragmented Nuclei (%): 24%

----------
- Test system: HEK-293T
- assay_procedure: Multiplex assay against HEK293T
- Type: toxicity, cell-based
- measurement_setup: human, 24 h, 10 µM, compound concentration 10 uM, replicate 1
endpoint_label: Population Membrane Permeable-Phenotype (%)

compound: O=C1N/C(=N/c2ccccc2F)S/C1=C\c1ccc(C(=O)O)cc1
reported: 5
--
compound: O=C(Cc1ccc(-c2ccc(OCCN3CCOCC3)cc2)cn1)NCc1ccccc1 [TIRBANIBULIN]
reported: 0
--
compound: Cc1cc(C)c(S(=O)(=O)N(Cc2ccc(-c3cccc(S(C)(=O)=O)c3)cc2)Cc2ccc(C(F)(F)F)o2)c(C)c1
reported: 9
--
compound: CN1CCN(C(=O)C(C)(C)c2ccc(C(=O)Nc3cn4cc(-c5cc(C(C)(C)C)cc(C(C)(C)C)c5)ccc4n3)cc2)CC1 [T3-CLK-N]
reported: 8
--
compound: Cl.Oc1ccc2c3c1O[C@H]1c4[nH]c5c(c4C[C@@]4(O)[C@@H](C2)N(CC2CC2)CC[C@]314)C[C@@]1(O)[C@H]2Cc3ccc(O)c4c3[C@@]1(CCN2CC1CC1)[C@H]5O4
reported: 0
--
compound: CCCS(=O)(=O)c1nc(NC2CC2)cc(-c2ccc3c(ccn3C3CC(C)(C)NC(C)(C)C3)c2)n1
reported: 26
--
compound: CCN1CCN(c2ccc(Nc3cc(N(C)C(=O)Nc4c(Cl)c(OC)cc(OC)c4Cl)ncn3)cc2)CC1 [INFIGRATINIB]
reported: 15

----------
Recorded Population Fragmented Nuclei (%), one value per entry.
- System: Fibroblast
- assay_procedure: Multiplex assay against human fibroblast
- Type: toxicity, cell-based
- measurement_setup: 12 h, 10 µM, compound concentration 10 uM, replicate 1

molecule: O=C1N/C(=N/c2ccccc2F)S/C1=C\c1ccc(C(=O)O)cc1
system: Fibroblast
readout_units: %
Population Fragmented Nuclei (%): 29
--
molecule: S=C(NCCCc1c[nH]cn1)NCCCN(Cc1ccc(Cl)c(Cl)c1)c1ccc(Br)cn1
system: Fibroblast
readout_units: %
Population Fragmented Nuclei (%): 18
--
molecule: CCCS(=O)(=O)Nc1ccc(F)c(C(=O)c2c[nH]c3ncc(Cl)cc23)c1F [PLX-4720]
system: Fibroblast
readout_units: %
Population Fragmented Nuclei (%): 23
--
molecule: O=C(Cc1ccc(-c2ccc(OCCN3CCOCC3)cc2)cn1)NCc1ccccc1 [TIRBANIBULIN]
system: Fibroblast
readout_units: %
Population Fragmented Nuclei (%): 30
--
molecule: COc1cccc2cc(-c3nc([C@H]4CC[C@H](C(=O)O)CC4)n4ncnc(N)c34)[nH]c12 [OSI-027]
system: Fibroblast
readout_units: %
Population Fragmented Nuclei (%): 28
--
molecule: Cc1cc(C)c(S(=O)(=O)N(Cc2ccc(-c3cccc(S(C)(=O)=O)c3)cc2)Cc2ccc(C(F)(F)F)o2)c(C)c1
system: Fibroblast
readout_units: %
Population Fragmented Nuclei (%): 40
--
molecule: CCN1CCN(c2ccc(Nc3cc(N(C)C(=O)Nc4c(Cl)c(OC)cc(OC)c4Cl)ncn3)cc2)CC1 [INFIGRATINIB]
system: Fibroblast
readout_units: %
Population Fragmented Nuclei (%): 31
--
molecule: Cc1ccc2nc(NCCN)c3ncc(C)n3c2c1.O=C(O)C(F)(F)F.O=C(O)C(F)(F)F
system: Fibroblast
readout_units: %
Population Fragmented Nuclei (%): 33
--
molecule: Cl.Oc1ccc2c3c1O[C@H]1c4[nH]c5c(c4C[C@@]4(O)[C@@H](C2)N(CC2CC2)CC[C@]314)C[C@@]1(O)[C@H]2Cc3ccc(O)c4c3[C@@]1(CCN2CC1CC1)[C@H]5O4
system: Fibroblast
readout_units: %
Population Fragmented Nuclei (%): 23
--
molecule: COc1ccc(-c2ccc3c(N4CCOCC4)nc(N4C[C@@H](C)O[C@@H](C)C4)nc3n2)cc1CO [Ku-0063794]
system: Fibroblast
readout_units: %
Population Fragmented Nuclei (%): 72
--
molecule: CCN1CCN(Cc2ccc(Nc3ncc(F)c(-c4cc(F)c5nc(C)n(C(C)C)c5c4)n3)nc2)CC1.CS(=O)(=O)O
system: Fibroblast
readout_units: %
Population Fragmented Nuclei (%): 40
--
molecule: O=C(Nc1ccc(-n2nc(-c3cccnc3)cc2C(F)(F)F)cn1)c1ccc(-c2ccccc2)c(F)c1 [BI 2049]
system: Fibroblast
readout_units: %
Population Fragmented Nuclei (%): 11
--
molecule: CCc1cccc(CC)c1NC(=O)c1nn(C)c2c1CCc1cnc(Nc3ccc(N4CCN(C)CC4)cc3OC)nc1-2
system: Fibroblast
readout_units: %
Population Fragmented Nuclei (%): 32
--
molecule: CCCS(=O)(=O)c1nc(NC2CC2)cc(-c2ccc3c(ccn3C3CC(C)(C)NC(C)(C)C3)c2)n1
system: Fibroblast
readout_units: %
Population Fragmented Nuclei (%): 42
--
molecule: CCn1cc(-c2ccnc3[nH]c(-c4cccc(CN(C)C)c4)cc23)c(-c2ccc(NC(=O)N(C)C)cc2)n1 [GSK-1070916]
system: Fibroblast
readout_units: %
Population Fragmented Nuclei (%): 23
--
molecule: COCC(=O)NC/C=C/c1ccc2ncnc(Nc3ccc(Oc4ccc(C)nc4)c(C)c3)c2c1 [CP-724714]
system: Fibroblast
readout_units: %
Population Fragmented Nuclei (%): 33

----------
Recorded Population Fragmented Nuclei (%), one value per entry.
- Tested on: HEK-293T
- assay_procedure: Multiplex assay against HEK293T
- Assay type: toxicity, cell-based
- measurement_setup: human, 48 h, 1 µM, compound concentration 1 uM, replicate 1
endpoint_label: Population Fragmented Nuclei (%)

molecule: CCc1cccc(CC)c1NC(=O)c1nn(C)c2c1CCc1cnc(Nc3ccc(C(=O)NC4CCN(C)CC4)cc3OC(F)(F)F)nc1-2
system: HEK-293T
reported: 14
//
molecule: Cl.Oc1ccc2c3c1O[C@H]1c4[nH]c5c(c4C[C@@]4(O)[C@@H](C2)N(CC2CC2)CC[C@]314)C[C@@]1(O)[C@H]2Cc3ccc(O)c4c3[C@@]1(CCN2CC1CC1)[C@H]5O4
system: HEK-293T
reported: 15
//
molecule: CCOC(=O)c1c(C)[nH]c2ccc3c(c12)CN1CCc2cc(OC)ccc2C1O3 (stereo not given)
system: HEK-293T
reported: 11
//
molecule: CN(C)C(=O)C(CCN1CCC(O)(c2ccc(Cl)cc2)CC1)(c1ccccc1)c1ccccc1.Cl [LOPERAMIDE HYDROCHLORIDE]
system: HEK-293T
reported: 16
//
molecule: Cc1ccc(C(=O)Nc2cccc(C(F)(F)F)c2)cc1Nc1nc(-c2cccnc2)nc2c1cnn2C
system: HEK-293T
reported: 21

Reference source for all entries: ChEMBL document CHEMBL4689842
